procedure details: In vitro cytotoxicity against human normal cell line (MTT)
Assay type: cell-based
cond: human, WI38 human lung fibroblast cells (normal cell line); WI38; Conc. 25 µM; read-out: Average of Relative viability of cells (%)
Give measured viability at 25 µM for each item. Keep answers brief.
Answers are plain numbers, in %.

C/C(=N\NC(=O)Nc1ccc(Cl)cc1)c1cc2ccccc2o1 [Compound 7] | 89.3

Hi team, please reply with viability at 25 µM for each item in this list.
1. O=C(/C=C/N1CCCCC1)c1cc2ccccc2o1 [Compound 5]
2. C/C(=N\NC(=S)Nc1ccc(Cl)cc1)c1cc2ccccc2o1 [Compound 8]
3. C\C(=N/N=C/C=C/c1ccccc1)c1cc2ccccc2o1 [Compound 12]

[72.3, 62.7, 61.9]

---

tested target: human PI3Kα (Homo sapiens)
Sequence (P42336 whole entry): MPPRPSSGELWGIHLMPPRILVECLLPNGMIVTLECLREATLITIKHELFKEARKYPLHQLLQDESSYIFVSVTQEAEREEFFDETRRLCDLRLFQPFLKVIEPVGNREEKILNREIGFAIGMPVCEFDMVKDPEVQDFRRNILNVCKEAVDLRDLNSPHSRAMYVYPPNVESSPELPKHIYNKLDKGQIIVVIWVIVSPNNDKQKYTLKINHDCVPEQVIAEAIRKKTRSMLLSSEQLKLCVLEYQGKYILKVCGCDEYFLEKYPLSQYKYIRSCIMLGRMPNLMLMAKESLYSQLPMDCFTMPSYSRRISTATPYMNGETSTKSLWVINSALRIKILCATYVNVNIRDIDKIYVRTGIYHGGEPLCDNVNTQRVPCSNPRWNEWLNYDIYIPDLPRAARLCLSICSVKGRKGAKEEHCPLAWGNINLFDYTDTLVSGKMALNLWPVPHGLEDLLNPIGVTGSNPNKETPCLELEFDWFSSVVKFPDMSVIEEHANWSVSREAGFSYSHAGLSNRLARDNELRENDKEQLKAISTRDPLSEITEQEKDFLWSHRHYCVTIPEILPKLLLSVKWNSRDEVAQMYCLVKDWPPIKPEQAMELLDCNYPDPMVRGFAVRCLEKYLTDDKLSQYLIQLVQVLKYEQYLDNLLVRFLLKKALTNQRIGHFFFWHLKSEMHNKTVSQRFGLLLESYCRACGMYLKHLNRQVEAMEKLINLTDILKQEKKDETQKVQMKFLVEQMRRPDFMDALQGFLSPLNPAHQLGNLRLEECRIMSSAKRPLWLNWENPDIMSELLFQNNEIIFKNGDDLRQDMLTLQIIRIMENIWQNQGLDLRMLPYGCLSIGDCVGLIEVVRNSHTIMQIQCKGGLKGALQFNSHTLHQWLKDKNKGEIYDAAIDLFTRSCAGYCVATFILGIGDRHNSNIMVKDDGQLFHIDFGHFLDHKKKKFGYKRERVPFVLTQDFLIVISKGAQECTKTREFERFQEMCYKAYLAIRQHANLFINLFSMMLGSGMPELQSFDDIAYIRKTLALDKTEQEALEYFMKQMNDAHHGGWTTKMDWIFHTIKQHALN
Sequence (P27986 whole entry partner): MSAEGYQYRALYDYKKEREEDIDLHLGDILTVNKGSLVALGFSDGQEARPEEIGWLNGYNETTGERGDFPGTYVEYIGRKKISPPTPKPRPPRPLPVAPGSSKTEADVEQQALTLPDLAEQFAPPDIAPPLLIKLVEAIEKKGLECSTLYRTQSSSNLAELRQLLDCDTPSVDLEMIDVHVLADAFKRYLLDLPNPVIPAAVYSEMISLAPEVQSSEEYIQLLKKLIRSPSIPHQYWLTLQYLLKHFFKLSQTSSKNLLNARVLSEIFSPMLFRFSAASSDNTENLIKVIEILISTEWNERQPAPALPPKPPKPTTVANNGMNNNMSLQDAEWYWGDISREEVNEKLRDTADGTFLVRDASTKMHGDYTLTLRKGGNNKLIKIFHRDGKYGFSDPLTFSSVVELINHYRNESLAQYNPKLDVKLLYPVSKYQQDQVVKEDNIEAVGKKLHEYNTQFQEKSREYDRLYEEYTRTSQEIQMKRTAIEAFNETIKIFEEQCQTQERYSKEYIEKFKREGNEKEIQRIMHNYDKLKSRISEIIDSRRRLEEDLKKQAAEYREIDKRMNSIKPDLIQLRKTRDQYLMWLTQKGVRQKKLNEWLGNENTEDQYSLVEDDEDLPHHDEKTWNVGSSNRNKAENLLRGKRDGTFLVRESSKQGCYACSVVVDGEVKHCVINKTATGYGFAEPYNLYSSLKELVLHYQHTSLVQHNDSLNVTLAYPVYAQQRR
procedure details: Human PI3Kα enzyme inhibition assay (ELISA)
cond: PI3K-α IC50 ng/ml, supplement lab report
property: pIC50
Numbers only, as −log10 of the molar value.

Entry C/C(=N\NC(=S)Nc1ccc(Cl)cc1)c1cc2ccccc2o1 [Compound 8] — recorded pIC50 = 8.19

---

tested target: human PI3Kα (Homo sapiens)
procedure details: Human PI3Kα enzyme inhibition assay (ELISA)
cond: PI3Kα enzymatic IC50 (nM), mean of triplicate
property: IC50
Put your answer as a value accompanied by its unit after it.

Entry C/C(=N\NC(=S)Nc1ccc(Cl)cc1)c1cc2ccccc2o1 — recorded IC50 = 2.21 nM
